Target: T1, human IL-18R alpha/beta pair (IL-18Rab) (human, UniProt Q13478 19-329; O95256 20-356)
T1 construct: also called hu IL-18Rab
T1 sequence (looked up) 1: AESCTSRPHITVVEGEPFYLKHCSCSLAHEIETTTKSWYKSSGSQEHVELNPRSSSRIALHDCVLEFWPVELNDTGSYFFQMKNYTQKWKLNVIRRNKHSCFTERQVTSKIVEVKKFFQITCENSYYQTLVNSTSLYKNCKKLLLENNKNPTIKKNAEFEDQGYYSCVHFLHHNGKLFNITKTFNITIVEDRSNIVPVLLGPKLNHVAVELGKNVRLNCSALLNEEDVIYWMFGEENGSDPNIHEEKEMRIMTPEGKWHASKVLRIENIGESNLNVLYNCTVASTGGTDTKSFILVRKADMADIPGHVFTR
T1 sequence (looked up) 2: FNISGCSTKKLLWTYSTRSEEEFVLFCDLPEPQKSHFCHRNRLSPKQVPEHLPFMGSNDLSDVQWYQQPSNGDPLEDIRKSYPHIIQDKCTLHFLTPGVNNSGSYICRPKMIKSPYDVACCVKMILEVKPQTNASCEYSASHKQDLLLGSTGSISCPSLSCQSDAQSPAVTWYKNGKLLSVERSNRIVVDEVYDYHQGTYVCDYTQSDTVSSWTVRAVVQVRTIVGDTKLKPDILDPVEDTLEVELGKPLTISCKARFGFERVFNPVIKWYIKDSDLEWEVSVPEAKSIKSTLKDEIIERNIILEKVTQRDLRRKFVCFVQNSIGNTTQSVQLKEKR
Test: Octet BLI
recorded-endpoint: pKd
FYI, pKd means -log10 of a concentration in mol per litre.

Below, 3 binders whose answers are already recorded.
IL-18 variant G3T, M60K, D157E (ligand) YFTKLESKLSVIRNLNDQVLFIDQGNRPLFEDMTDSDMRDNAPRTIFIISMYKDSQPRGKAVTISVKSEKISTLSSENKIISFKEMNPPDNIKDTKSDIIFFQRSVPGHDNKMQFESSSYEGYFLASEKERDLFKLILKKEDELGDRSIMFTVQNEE ... 10.00
IL-18 variant G3E, K53S (ligand) YFEKLESKLSVIRNLNDQVLFIDQGNRPLFEDMTDSDMRDNAPRTIFIISMYSDSQPRGMAVTISVKSEKISTLSSENKIISFKEMNPPDNIKDTKSDIIFFQRSVPGHDNKMQFESSSYEGYFLASEKERDLFKLILKKEDELGDRSIMFTVQNED ... 9.51
IL-18 variant G3V, M60K (ligand) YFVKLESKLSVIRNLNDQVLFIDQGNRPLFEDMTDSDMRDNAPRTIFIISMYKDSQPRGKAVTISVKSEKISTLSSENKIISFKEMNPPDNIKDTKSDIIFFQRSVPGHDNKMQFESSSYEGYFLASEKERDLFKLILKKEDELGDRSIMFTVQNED ... 10.15

[Q] Can you look up the measured pKd of IL-18 variant G3R, K53S (ligand) YFRKLESKLSVIRNLNDQVLFIDQGNRPLFEDMTDSDMRDNAPRTIFIISMYSDSQPRGMAVTISVKSEKISTLSSENKIISFKEMNPPDNIKDTKSDIIFFQRSVPGHDNKMQFESSSYEGYFLASEKERDLFKLILKKEDELGDRSIMFTVQNED for me?
[A] 10.05

Data credit: patent US20240182536A1
